- tested_system: Glucose transporter (Leishmania mexicana) (UniProt O61059)
- procedure_details: ST_JUDE_LEISH: Cytotoxicity at 2uM final concentration against transgenic Leishmania Mexicana promastigotes LmGT2 that are glucose transport deficient and complemented with the L. Mexicana glucose transporter 2. Activity is measured by DNA content using SYBR green in vitro
- Format: functional
Overview of recorded inhibition for various molecules
parameter_measured: inhibition

{"molecule": "COc1cccc(-c2csc(C(=O)NCC3CCN(Cc4ccc(C(C)C)cc4)C3)c2)c1 (stereo not given)", "parameter_measured": "inhibition", "measurement": "0.03%"}
{"molecule": "COc1ccc(C(=O)C2CC2CN(C)CCC(O)c2ccc(Cl)c(Cl)c2)cc1 (stereo not given)", "parameter_measured": "inhibition", "measurement": "4.55%"}
{"molecule": "CC(C)C1C(O)=C(c2ccc3ccccc3c2)C(=O)N1CC1CCCCC1 (stereo not given)", "parameter_measured": "inhibition", "measurement": "-8.52%"}
{"molecule": "Cc1cccc(CNc2nc(C)cc(N[C@@H](CC(C)C)C(=O)NCCOc3ccccc3)n2)c1", "parameter_measured": "inhibition", "measurement": "2.08%"}
{"molecule": "COc1ccccc1C1CC(c2ccc(Br)cc2)=NN1C(=O)c1ccccc1 (stereo not given)", "parameter_measured": "inhibition", "measurement": "0.92%"}
{"molecule": "CC(C)C(NC(=O)Cc1cccc2ccccc12)C(=O)Nc1cccc(C#N)c1 (stereo not given)", "parameter_measured": "inhibition", "measurement": "2.76%"}
{"molecule": "COc1ccc(Nc2nccc(N3CCC(NC(=O)c4cccc(NC(C)=O)c4)C3)n2)cc1 (stereo not given)", "parameter_measured": "inhibition", "measurement": "1.86%"}
{"molecule": "c1cncc(CNc2ncc(-c3ccsc3)c(-c3nccs3)n2)c1", "parameter_measured": "inhibition", "measurement": "7.02%"}
{"molecule": "CC(C)CNC(=O)c1cncc(-c2ccc(CN(C)C3CCN(C)CC3)cc2)c1", "parameter_measured": "inhibition", "measurement": "1.87%"}
{"molecule": "COc1ccc(CNc2cc(C)nc3sc4c(c23)CCC2(C4)OCCO2)cc1", "parameter_measured": "inhibition", "measurement": "0.47%"}
